Measured values drawn from patent US12365738B2 for this set.

Molecular target: T1, hIL-11Rα (Homo sapiens, UniProt Q14626)
T1 sequence (Q14626 23-422): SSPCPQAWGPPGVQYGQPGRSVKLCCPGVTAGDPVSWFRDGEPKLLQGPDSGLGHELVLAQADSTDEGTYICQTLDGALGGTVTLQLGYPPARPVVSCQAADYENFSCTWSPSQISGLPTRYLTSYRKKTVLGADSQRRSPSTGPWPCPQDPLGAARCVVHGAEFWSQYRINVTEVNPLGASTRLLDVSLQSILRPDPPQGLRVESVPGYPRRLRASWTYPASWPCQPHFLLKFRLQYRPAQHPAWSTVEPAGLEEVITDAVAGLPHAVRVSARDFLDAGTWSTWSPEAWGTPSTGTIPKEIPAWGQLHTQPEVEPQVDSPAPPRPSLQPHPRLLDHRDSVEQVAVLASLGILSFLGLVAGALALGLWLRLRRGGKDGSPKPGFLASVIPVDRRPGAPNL
Assay: Kinetic binding analysis by biolayer interferometry (protein G biosensors, Octet RED96e)
Label true (1) when ka is strictly below 60000 M⁻¹ s⁻¹; at or above that, label false (0).

[[record]]
molecule = "mAb12: anti-IL-11Rα antibody, human IgG4 (S228P), kappa; VH SEQ ID NO: 215, VL SEQ ID NO: 216 (antibody, V domains shown, IgG4 S228P kappa constant regions; mAb12 VH Chain; mAb12 VL Chain) VH: EVQLLESGGGLVQPGGSLRLSCAASGFTFSWYSMTWVRQAPGKGLEWVSSIVPYGDLTQYADSVKGRFTISRDNSKNTLYLQMNSLRAEDTAVYYCAKGPGWYSFDLWGRGTLVTVSS VL: DIQMTQSPSSLSASVGDRVTITCQASQDINNYLNWYQQKPGKAPKLLIYDASNLQTGVPSRFSGSGSGTDFTFTISSLQPEDIATYYCQQHESQSPTFGPGTKVDIK"
class = "true (1)"

[[record]]
molecule = "mAb9: anti-IL-11Rα antibody, human IgG4 (S228P), kappa; VH SEQ ID NO: 209, VL SEQ ID NO: 210 (antibody, V domains shown, human IgG4 S228P and kappa constant regions; mAb9 VH Chain; mAb9 VL Chain) VH: EVQLLESGGGLVQPGGSLRLSCAASGFTFSWYSMTWVRQAPGKGLEWVSGIVPYGDLTQYADSVKGRFTISRDNSKNTLYLQMNSLRAEDTAVYYCAKGPGWGSFDLWGRGTLVTVSS VL: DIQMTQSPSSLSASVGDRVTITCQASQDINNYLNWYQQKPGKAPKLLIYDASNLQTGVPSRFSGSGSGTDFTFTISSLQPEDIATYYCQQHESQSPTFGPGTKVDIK"
class = "false (0)"

[[record]]
molecule = "mAb14: anti-IL-11Rα antibody, human IgG4 (S228P), kappa; VH SEQ ID NO: 219, VL SEQ ID NO: 220 (antibody, V domains shown, IgG4 S228P kappa constant regions; mAb14 VH Chain; mAb14 VL Chain) VH: EVQLLESGGGLVQPGGSLRLSCAASGFTFSWYSMTWVRQAPGKGLEWVSSIVPYGDLTQYAESVKGRFTISRDNSKNTLYLQMNSLRAEDTAVYYCAKGPGWGSFDLWGRGTLVTVSS VL: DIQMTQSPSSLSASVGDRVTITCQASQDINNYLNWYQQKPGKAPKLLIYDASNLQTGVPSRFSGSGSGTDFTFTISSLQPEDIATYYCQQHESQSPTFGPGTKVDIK"
class = "true (1)"

[[record]]
molecule = "mAb5: anti-IL-11Rα antibody, human IgG4 (S228P), kappa; VH SEQ ID NO: 201, VL SEQ ID NO: 202 (antibody, V domains shown, IgG4 S228P kappa constant regions; mAb5 VH Chain; mAb5 VL Chain) VH: EVQLLESGGGLVQPGGSLRLSCAASGFTFSWYSMTWVRQAPGKGLEWVSSIVPYGDLTQYADSVKGRFTISRDNSKNTLYLQMNSLRAEDTAVYYCAKGPGWGSFDLWGRGTLVTVSS VL: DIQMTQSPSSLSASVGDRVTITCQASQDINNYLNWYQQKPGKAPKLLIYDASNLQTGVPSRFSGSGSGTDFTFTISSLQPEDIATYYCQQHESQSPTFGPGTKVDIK"
class = "false (0)"

[[record]]
molecule = "mAb7: anti-IL-11Rα antibody, human IgG4 (S228P), kappa; VH SEQ ID NO: 205, VL SEQ ID NO: 206 (antibody, V domains shown, human IgG4 S228P and kappa constant regions; mAb7 VH Chain; mAb7 VL Chain) VH: EVQLLESGGGLVQPGGSLRLSCAASGFTFSNYAMSWVRQAPGKGLEWVSSIVPYGDLTQYADSVKGRFTISRDNSKNTLYLQMNSLRAEDTAVYYCAKGPGWGSFDLWGRGTLVTVSS VL: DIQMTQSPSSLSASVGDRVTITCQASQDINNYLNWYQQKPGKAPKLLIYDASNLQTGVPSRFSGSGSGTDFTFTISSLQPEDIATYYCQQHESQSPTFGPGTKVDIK"
class = "false (0)"


Query block: # check: ka < 60000 M⁻¹ s⁻¹ for mAb8: anti-IL-11Rα antibody, human IgG4 (S228P), kappa; VH SEQ ID NO: 207, VL SEQ ID NO: 208 (antibody, V domains shown, human IgG4 S228P and kappa constant regions; mAb8 VH Chain; mAb8 VL Chain) VH: EVQLLESGGGLVQPGGSLRLSCAASGFTFSSYAMSWVRQAPGKGLEWVSSIVPYGDLTQYADSVKGRFTISRDNSKNTLYLQMNSLRAEDTAVYYCAKGPGWGSFDLWGRGTLVTVSS VL: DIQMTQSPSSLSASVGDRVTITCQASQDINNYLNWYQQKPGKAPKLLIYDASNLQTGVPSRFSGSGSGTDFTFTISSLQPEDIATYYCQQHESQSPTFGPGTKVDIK
Result block: false (0)

Query block: Let us now turn to mAb13: anti-IL-11Rα antibody, human IgG4 (S228P), kappa; VH SEQ ID NO: 217, VL SEQ ID NO: 218 (antibody, V domains shown, IgG4 S228P kappa constant regions; mAb13 VH Chain; mAb13 VL Chain) VH: EVQLLESGGGLVQPGGSLRLSCAASGFTFSWYSMTWVRQAPGKGLEWVSSIVPYGDLTQYADSVKGRFTISRDNSKNTLYLQMNSLRAEDTAVYYCAKPEDWGRFDLWGRGTLVTVSS VL: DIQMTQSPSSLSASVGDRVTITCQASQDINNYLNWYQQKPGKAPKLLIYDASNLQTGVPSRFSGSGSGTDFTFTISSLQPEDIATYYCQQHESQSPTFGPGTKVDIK
Result block: false (0)
